Examples of compounds with documented GI50 follow.
system: KM12 colon; experiment: NCI tumour cell line growth inhibition, 48 h

The following compounds have reported results that may help.
COc1ccc(Nc2cc(C)nc(NCc3ccccc3)n2)cc1
6.2 µM
NC1CCCCC1N.O=[Se]([O-])[O-].[Pt+4] (configuration not stated)
2.51 µM
COCCNc1ccc2c3c(cccc13)C(=O)N(CCN(C)C)C2=O
8.65 µM
Cc1ccc(-c2cc3c4c(nc5ccccc53)C(=O)c3cccnc3-c4n2)cc1
6.46 µM

-- ask Write down the reported GI50 (system: KM12 colon) of COc1ccc(Sc2nc3cc(N)cc(N)c3nc2-c2ccccc2)cc1
-- reply 28.4 µM

-- ask Look up KM12 colon data: GI50 of CC(=O)Nc1c(I)c(NC(C)=O)c(I)c(C(=O)O)c1I , then report it.
-- reply > 100 µM

-- ask // fetch GI50; item: COc1cc2ncnc(Nc3cccc(Cl)c3F)c2cc1OC(=O)N1CCN(C)C[C@H]1C ; system: KM12 colon
-- reply > 50.5 µM

* * *

tested on: LXFL 529 NSCLC; test: NCI tumour cell line growth inhibition, 48 h
Known TGI of a selection of compounds

Observe how each entry below is paired with its result.
O=C1NC(=O)C(C(=O)C(=O)Nc2ccc(Cl)cc2Cl)C(=O)N1
> 100 µM
CC1(Br)CC2OC3(Br)C=CC(C)(O)C2(CC1=O)C3(C)C (stereo not drawn)
> 100 µM

Then this compound:
-- ask Let me know recorded TGI for COC(=O)c1ccccc1N1C(=O)Cc2ccccc2C1=O , thanks.
-- reply > 100 µM

* * *

tested on: MALME-3M melanoma; experiment: NCI tumour cell line growth inhibition, 48 h
Where a SMILES comes first, the peptide text is derived from it. [ ]: non-standard residue; d: D form. Phe(4-NO2) = N[CH](Cc1ccc([N+](=O)[O-])cc1)C(=O)O
# Lookup of reported TGI keyed by entry

O=C(O)c1cc2c(cc1CC(Cc1ccc3c(c1)CCCC3)C(=O)O)CCCC2 (stereo not given)
> 100 µM
CC(NC(=O)C(Cc1ccc([N+](=O)[O-])cc1)NC(=O)C(N)CCCCN)C(=O)NC(Cc1ccc([N+](=O)[O-])cc1)C(N)=O (stereo not given) (H-K[Phe(4-NO2)]A[Phe(4-NO2)]-NH2; configuration not given here)
> 83.7 µM
O=C1C=CC2(C=C1)CCNC1=C2C(=O)c2ccccc2C1=O
> 100 µM
CC1(Br)CC2OC3(Br)C=CC(C)(O)C2(CC1=O)C3(C)C (stereo not given)
> 100 µM

Now for another entry.
-- ask Give the value of TGI reported for the following: COc1cc2oc(-c3ccc4c(c3)OCO4)c(OC)c(=O)c2c(OC)c1O
-- reply > 100 µM

* * *

NCI-H460 lung GI50 data

CCCCCCn1c(-c2ccc(C(=O)O/N=C(\N)c3ccc4ccccc4c3)cc2)nc(-c2ccccc2)c1-c1ccccc1
> 100 µM
[Cl][Hg][c]1ccc(Cl)s1
8.9 µM

# input for lookup
-- ask # return GI50 of CN(C)CCCCC(C(=O)CBr)(c1ccccc1)c1ccccc1 (system: NCI-H460 lung)
-- reply 6.36 µM

* * *

test system: A498 renal; experiment: NCI tumour cell line growth inhibition, 48 h
Where a SMILES comes first, the peptide text is derived from it. Bridges are numbered along the chain shown (N, C = ends). [ ]: non-standard residue; d: D form. The star is where a group is joined. ξ: configuration not given here. Phe(4-NO2) = N[CH](Cc1ccc([N+](=O)[O-])cc1)C(=O)O; ξDab(CH2SO3H) = NC(CCNCS(=O)(=O)O)C(=O)O; Heptanoyl(6-Me) = CC(C)CCCCC(=O)*; Dab = NCC[CH](N)C(=O)O
// reported TGI for each item listed

Sample records with TGI:
CCCCCCCCCCCC(=O)N1CCN(C(C)=O)CC1
> 100 µM
C#CCN(Cc1nc2cc(C(F)(F)F)ccc2nc1-c1ccccc1)c1ccc(C)cc1
27.5 µM
O=C1/C(=C/c2ccco2)N=C2Sc3c(nc[nH]c3=O)N12
> 100 µM
C[C@@H](NC(=O)/C(C#N)=C/c1ccc([N+](=O)[O-])cc1)c1ccccc1
8.49 µM
C[C@@H]1CCC([C@@H](C)[C@H]2CC[C@H]3[C@@H]4CC[C@H]5C[C@@H](O)CC[C@]5(C)[C@H]4CC[C@]23C)=NC1
> 100 µM

-- ask Recall and state the measured TGI for C=C1C(=O)O[C@H]2[C@H]1CC/C(C=Nc1c(N)cc(C(F)(F)F)cc1C(F)(F)F)=C\CC[C@@]1(C)O[C@@H]21 .
-- reply 3.51 µM

-- ask Quote TGI reported for CCC(C)C1NC(=O)C(CCNCS(=O)(=O)O)NC(=O)C(NC(=O)C(CCNCS(=O)(=O)O)NC(=O)C(NC(=O)C(CCNCS(=O)(=O)O)NC(=O)CCCCC(C)C)C(C)O)CCNC(=O)C(C(C)O)NC(=O)C(CCNCS(=O)(=O)O)NC(=O)C(CCNCS(=O)(=O)O)NC(=O)C(C(C)CC)NC1=O (configuration not stated) ({Heptanoyl(6-Me)}-[ξDab(CH2SO3H)]T[ξDab(CH2SO3H)][Dab][ξDab(CH2SO3H)]II[ξDab(CH2SO3H)][ξDab(CH2SO3H)]T; lactam 4-C; configuration not given here) please.
-- reply > 25 µM

-- ask Could you please provide reported TGI for C=CCN1C[C@H](C)N([C@@H](c2ccc(C(=O)N3CCCCC3)cc2)c2cccc(OC)c2)C[C@H]1C ? Thanks!
-- reply > 100 µM

-- ask Tell me its TGI given O=[N+]([O-])c1ccc(C2CC(c3ccccc3)=Nc3ccccc3S2)cc1 (configuration not stated) as the entry.
-- reply > 100 µM

-- ask Return reported TGI. Input compound: CCCNCC(=O)O[C@]1(CC)C(=O)OCc2c1cc1n(c2=O)Cc2cc3ccccc3nc2-1
-- reply 0.849 µM

-- ask Tell me its TGI given CC(NC(=O)C(Cc1ccc([N+](=O)[O-])cc1)NC(=O)C(N)CCCCN)C(=O)NC(Cc1ccc([N+](=O)[O-])cc1)C(N)=O (configuration not stated) (H-K[Phe(4-NO2)]A[Phe(4-NO2)]-NH2; configuration not given here) as the entry.
-- reply > 100 µM

-- ask Supply recorded TGI for C[C@]12CC[C@@H]3c4cc(O)c(O)cc4CC[C@H]3[C@@H]1CC[C@@H]2O here.
-- reply 62.3 µM

Source: PubChem BioAssay (NCI)
